Data origin, for the record: patent EP0906294B1

- measurementTarget: human recombinant dopamine D4.2 receptor subtype (Homo sapiens, UniProt P21917, DEL265-296)
- Sequence (P21917 with tags, fused parts or gaps DEL265-296): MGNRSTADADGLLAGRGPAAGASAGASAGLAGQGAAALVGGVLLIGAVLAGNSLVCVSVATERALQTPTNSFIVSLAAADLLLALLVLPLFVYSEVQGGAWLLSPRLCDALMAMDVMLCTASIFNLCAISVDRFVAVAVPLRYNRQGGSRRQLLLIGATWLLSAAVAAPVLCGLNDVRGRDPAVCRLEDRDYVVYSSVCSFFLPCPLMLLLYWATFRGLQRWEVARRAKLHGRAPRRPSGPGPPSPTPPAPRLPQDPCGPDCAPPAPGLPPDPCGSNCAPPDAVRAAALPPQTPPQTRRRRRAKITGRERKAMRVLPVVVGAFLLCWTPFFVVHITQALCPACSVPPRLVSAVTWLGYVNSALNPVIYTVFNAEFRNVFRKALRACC
- assayProtocol: Receptor binding assay, [3H]spiperone competition, D4.2
- conditionContext: ratio of D2 Ki to D4 Ki
measurementName: D2/D4 Ratio

* O=C1COc2cc(CN3CCN(c4ccc(Cl)cc4)CC3)ccc2N1 [Example 35] | 132.5

I: Cc1ccc(C2CCN(Cc3ccc4c(c3)OCC(=O)N4)CC2)cc1 [Example 41]
II: COc1ccc(C2CCN(Cc3ccc4c(c3)OCC(=O)N4)CC2)cc1 [Example 38]
III: COc1ccc(N2CCN(Cc3ccc4c(c3)OCC(=O)N4)CC2)cc1 [Example 34]
Prompt line: Reorder the items by D2/D4 Ratio, least to greatest. Reply with the labels, ordered as the question asks.
Response line: I, II, III
